Quick record of MIC values for Esherichia coli DC0.
Write the answer as a number in µg/mL, unit excluded.

compound | MIC / µg/mL
CON=C1CN(c2cc3c(cc2F)c(=O)c(C(=O)O)cn3-c2ccc(F)cc2F)CC12CNC2.CS(=O)(=O)O.CS(=O)(=O)O | 0.781
CON=C1CN(c2nc3c(cc2F)c(=O)c(C(=O)O)cn3-c2ccc(F)cc2F)CC12CNC2.CS(=O)(=O)O | 0.781
O=C(O)c1cn(C2CC2)c2cc(N3CCNCC3)c(F)cc2c1=O [Ciprofloxacin, ciprofloxacin, reference compound] | 0.195
CON=C1CN(c2c(F)cc3c(=O)c(C(=O)O)cn(C4CC4)c3c2Cl)CC12CNC2 | 0.391

Looking for the measured MIC of CCON=C1CN(c2nc3c(cc2F)c(=O)c(C(=O)O)cn3C2CC2)CC12CNC2.CS(=O)(=O)O , can you help?
0.391
